biological target: T1, cSNK:BSA conjugate (bovine, head-to-tail cyclized; conjugated to BSA carrier); assay: BLI 2:1 fit, site 2 (kdis2); 3.13 nM row
T1 construct: also called BSA-cSNK
T1 sequence (P02769 25-607 limits assumed): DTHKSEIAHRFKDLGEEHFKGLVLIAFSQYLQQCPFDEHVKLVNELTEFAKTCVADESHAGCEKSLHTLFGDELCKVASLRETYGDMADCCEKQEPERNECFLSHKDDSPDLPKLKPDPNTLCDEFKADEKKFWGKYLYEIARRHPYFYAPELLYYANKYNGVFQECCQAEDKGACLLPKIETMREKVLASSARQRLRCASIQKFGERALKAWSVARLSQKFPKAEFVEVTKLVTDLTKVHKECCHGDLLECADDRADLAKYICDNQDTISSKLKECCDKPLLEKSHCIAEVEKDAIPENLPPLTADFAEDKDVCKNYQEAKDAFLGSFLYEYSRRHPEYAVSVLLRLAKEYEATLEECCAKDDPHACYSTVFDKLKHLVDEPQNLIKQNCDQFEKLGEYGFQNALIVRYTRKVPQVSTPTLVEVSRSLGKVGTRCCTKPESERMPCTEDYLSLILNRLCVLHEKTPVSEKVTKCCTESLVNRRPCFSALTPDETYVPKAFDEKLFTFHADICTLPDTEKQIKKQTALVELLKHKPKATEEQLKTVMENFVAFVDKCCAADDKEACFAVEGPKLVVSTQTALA
readout_kind: koff (s⁻¹)
Give bare numbers, in s⁻¹.

- hu5E3-IgG1 (antibody, V domains shown, human IgG1/kappa; also called humanized 5E3 IgG1; IHA variant) VH: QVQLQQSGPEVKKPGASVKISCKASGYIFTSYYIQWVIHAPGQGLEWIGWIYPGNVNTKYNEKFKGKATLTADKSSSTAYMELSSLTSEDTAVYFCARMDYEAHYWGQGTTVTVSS VL: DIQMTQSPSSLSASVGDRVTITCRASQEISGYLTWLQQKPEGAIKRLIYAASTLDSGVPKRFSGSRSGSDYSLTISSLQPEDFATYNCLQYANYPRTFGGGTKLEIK: 0.012
- hu5E3-IgG4 (antibody, V domains shown, human IgG4/kappa; also called humanized 5E3 IgG4) VH: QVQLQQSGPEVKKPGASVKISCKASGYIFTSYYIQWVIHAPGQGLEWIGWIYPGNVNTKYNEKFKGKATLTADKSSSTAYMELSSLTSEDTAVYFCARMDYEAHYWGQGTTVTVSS VL: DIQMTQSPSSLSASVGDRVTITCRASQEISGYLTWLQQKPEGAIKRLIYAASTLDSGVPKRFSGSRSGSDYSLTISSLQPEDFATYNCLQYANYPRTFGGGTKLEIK: 0.0229
- hu5E3-IgG2 (antibody, V domains shown, human IgG2/kappa; also called humanized 5E3 IgG2) VH: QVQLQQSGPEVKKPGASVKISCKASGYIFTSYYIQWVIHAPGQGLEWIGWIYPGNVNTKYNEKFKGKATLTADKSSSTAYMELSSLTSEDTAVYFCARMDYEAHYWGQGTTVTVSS VL: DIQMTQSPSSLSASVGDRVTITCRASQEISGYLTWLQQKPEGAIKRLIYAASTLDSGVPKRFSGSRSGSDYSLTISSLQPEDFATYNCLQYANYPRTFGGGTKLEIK: 0.0338

Which koff is listed for murine monoclonal antibody 5E3 (antibody, V domains shown, mouse antibody of the 5E3 hybridoma; also called murine 5E3; m5E3) VH: QVQLQQSGPELVKPGASVRISCKASGYIFTSYYIQWVIHRPGQGLEWIGWIYPGNVNTKYNEKFKGKATLTADKSSSTAYMQLSRLTSEDSAVYFCARMDYEAHYWGQGTTLTVSS VL: DIQMTQSPSSLSASLGERVSLTCRASQEISGYLTWLQQKPDGTIKRLIYAASTLDSGVPKRFSGSRSGSDYSLTISSLESEDFADYNCLQYANYPRTFGGGTKLEIK ?
0.0226
